binders and their reported pKd
# Assayed system: T1, mouse vascular endothelial growth factor receptor-2 Fc chimera (Flk-1-Fc) (mouse, UniProt P35918 20-762)
# T1 construct: Purchased from R&D Systems; also called mouse VEGF-R2; not shown: Fc part of the purchased chimera
# T1 sequence (P35918 20-762, change not shown): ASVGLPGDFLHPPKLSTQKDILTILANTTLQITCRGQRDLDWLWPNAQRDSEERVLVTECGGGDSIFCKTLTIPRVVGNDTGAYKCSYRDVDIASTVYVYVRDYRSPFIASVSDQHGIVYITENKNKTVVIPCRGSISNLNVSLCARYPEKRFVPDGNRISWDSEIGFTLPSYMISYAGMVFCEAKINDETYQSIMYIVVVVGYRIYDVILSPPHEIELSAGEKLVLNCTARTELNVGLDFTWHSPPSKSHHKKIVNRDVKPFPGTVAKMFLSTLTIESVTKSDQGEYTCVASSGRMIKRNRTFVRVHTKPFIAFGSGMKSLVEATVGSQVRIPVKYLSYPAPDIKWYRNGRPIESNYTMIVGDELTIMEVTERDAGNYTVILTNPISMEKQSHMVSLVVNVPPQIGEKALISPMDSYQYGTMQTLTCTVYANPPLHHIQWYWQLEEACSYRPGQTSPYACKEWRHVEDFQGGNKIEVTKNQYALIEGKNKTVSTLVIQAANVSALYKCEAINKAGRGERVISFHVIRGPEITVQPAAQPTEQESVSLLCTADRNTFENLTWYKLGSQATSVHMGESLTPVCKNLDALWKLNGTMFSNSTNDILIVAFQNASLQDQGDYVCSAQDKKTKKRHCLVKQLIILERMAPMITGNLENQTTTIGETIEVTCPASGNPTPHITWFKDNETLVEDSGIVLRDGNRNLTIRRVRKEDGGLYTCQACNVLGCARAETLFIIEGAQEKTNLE
# Experimental protocol: radioactive equilibrium binding (assay not given)
pKd: −log10 of the molar value.

Binder: E19 (designed binder, Del 1-8 10Fn3 clone; Tags not included) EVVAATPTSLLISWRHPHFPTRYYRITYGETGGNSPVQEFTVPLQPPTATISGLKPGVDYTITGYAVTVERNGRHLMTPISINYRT
pKd: 9.18

Binder: E5 (designed binder, Del 1-8 10Fn3 clone; Flag tag of the radioactive-assay form not included) EVVAATPTSLLISWRHPHFPTRYYRITYGETGGNSPVQEFTVPLQPPTATISGLKPGVDYTITGYAVTDGQNGRLLNVPISINYRT
pKd: 8.49

Binder: E25 (designed binder, Del 1-8 10Fn3 clone; Flag tag of the radioactive-assay form not included) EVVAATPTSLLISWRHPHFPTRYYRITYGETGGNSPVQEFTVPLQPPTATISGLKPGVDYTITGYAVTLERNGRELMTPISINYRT
pKd: 8.89

Binder: E3 (designed binder, Del 1-8 10Fn3 clone; Flag tag of the radioactive-assay form not included) EVVAATPTSLLISWRHPHFPTRYYRITYGETGGNSPVQEFTVPLQPPTATISGLKPGVDYTITGYAVTDGRNDRKLMVPISINYRT
pKd: 8.27

Binder: E28 (designed binder, Del 1-8 10Fn3 clone; Flag tag of the radioactive-assay form not included) EVVAATPTSLLISWRHPHFPTRYYRITYGETGGNSPVQEFTVPLQPPTATISGLKPGVDYTITGYAVTLERNGRELMVPISINYRT
pKd: 8.68
